Target Of Assay: Aldehyde dehydrogenase 1A1 (Homo sapiens) (UniProt P00352)
Sequence (P00352 whole entry, looked up): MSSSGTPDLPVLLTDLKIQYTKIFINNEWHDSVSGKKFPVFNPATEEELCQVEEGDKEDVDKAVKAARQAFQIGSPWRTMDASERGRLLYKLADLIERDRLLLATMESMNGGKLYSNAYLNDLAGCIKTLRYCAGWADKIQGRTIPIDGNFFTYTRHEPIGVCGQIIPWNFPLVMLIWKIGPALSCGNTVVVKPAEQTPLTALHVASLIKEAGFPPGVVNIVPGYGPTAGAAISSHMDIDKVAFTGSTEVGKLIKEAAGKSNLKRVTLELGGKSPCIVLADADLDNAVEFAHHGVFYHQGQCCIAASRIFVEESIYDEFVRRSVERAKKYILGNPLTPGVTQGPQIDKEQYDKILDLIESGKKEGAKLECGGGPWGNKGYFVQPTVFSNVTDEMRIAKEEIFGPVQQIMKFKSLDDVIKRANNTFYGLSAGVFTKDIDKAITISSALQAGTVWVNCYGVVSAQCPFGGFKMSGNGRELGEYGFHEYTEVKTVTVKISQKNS
Method Description: qHTS Assay for Inhibitors of Aldehyde Dehydrogenase 1 (ALDH1A1)
Condition Context: Purified ALDH1A1, NADH fluorescence, propionaldehyde substrate; series mostly up to 75.3 µM
In all, about 220,000 compounds went through this assay and about 16,000 (7.3%) were called active. About 25% were inconclusive and are not listed. The call rests on the fitted dose curve; in most records, active means well fitted inhibition curve with a large enough effect (not every such curve was filed as active); inconclusive means small, poorly fitted or top-dose-only effect, or another doubt; inactive means no such curve, though single readings can be large or run the other way. Many of the other results were omitted from the sample, so actives are more common in it than they were.
Outcome field: choose from active, inactive

Study these solved cases before continuing.
O=C(Nc1ccccc1Cl)c1ccc2nsnc2c1
inactive
O=C1CC(c2c(F)cccc2Cl)C(n2cncn2)C(O)=C1C1NCCc2ccccc21 (centres undefined)
inactive
CCc1c(C)sc(NC(=O)/C=C/c2ccc3c(c2)OCO3)c1C(=O)OC
inactive
O=C(Nc1ccccc1Cl)/C(Cl)=C(\Cl)S(=O)c1ccccc1 (centres undefined)
active
CCOC(=O)C1CCCN(C(=O)COc2ccc(N(C)S(=O)(=O)c3ccc(C)cc3)cc2)C1 (centres undefined)
inactive

Data request: // return assay outcome for Cn1c(CO)cnc1SCc1ccccc1
Data returned: inactive

Data request: Assay result, entry CCOC(=O)c1sc(NC(=O)COc2ncnc3ccccc23)c(C(=O)OCC)c1C — outcome?
Data returned: inactive

Data request: Could you check what this test reported for CSc1nc2ccccc2c(=O)n1Cc1ccc(F)cc1 ?
Data returned: inactive

Data request: // return assay outcome for O=C(O)Cc1ccc(NCc2ccccc2Cl)cc1
Data returned: inactive

Data request: Could you check what this test reported for Cc1cc(C)c(S(=O)(=O)N2CCOCC2)cc1C ?
Data returned: inactive

Data request: What was the test verdict on O=C(Cc1ccc([N+](=O)[O-])cc1)N/N=C/c1ccco1 ?
Data returned: inactive

Data request: // outcome(item) with item = CCC1=C/C(=C\c2ccc3c(c2)OCO3)C(=O)S1
Data returned: active

----------
Target Of Assay: Aldehyde dehydrogenase 1A1 (Homo sapiens) (UniProt P00352)
Method Description: qHTS Assay for Inhibitors of Aldehyde Dehydrogenase 1 (ALDH1A1)
Condition Context: Purified ALDH1A1, NADH fluorescence, propionaldehyde substrate; series mostly up to 75.3 µM
About 16,000 (7.3%) of roughly 220,000 compounds were called active. Another 25% or so got no clear call; they are omitted. The call rests on the fitted dose curve; in most records, active means well fitted inhibition curve with a large enough effect (not every such curve was filed as active); inconclusive means small, poorly fitted or top-dose-only effect, or another doubt; inactive means no such curve, though single readings can be large or run the other way. The list comes from a sample in which actives are over-represented; it also holds close analogues and randomly drawn compounds.
Tick one outcome: active, inactive

# count of solved cases: 3
CC1CCN(S(=O)(=O)c2ccc(S(=O)(=O)NCc3ccco3)cc2)CC1
inactive
O=C(CSCc1ccc(Cl)cc1)N1CCCCC1
active
O=C(NC1CCC(O)CC1)c1ccc(S(=O)(=O)NCc2ccco2)cc1 (stereo unspecified)
inactive

Data request: Write down the call the test reported for this compound. Item: COc1ccc(CCNC(=O)CSc2nnc3ccc(-c4ccncc4)nn23)cc1
Data returned: inactive

Data request: Hi team, can someone confirm the assay call for Cc1ccccc1/[N+]([O-])=C/c1ccncc1 ?
Data returned: active

Data request: Recorded test call requested for Cn1cc(/C=C/C(=O)N2CCCC(C(=O)c3ccc(C(F)(F)F)cc3)C2)cn1 (stereo unspecified)
Data returned: inactive

Data request: Identify the outcome logged in this assay for the compound shown: CCC(C)NC(=O)/C=C/c1ccc(S(=O)(=O)NCc2ccco2)cc1 (stereo unspecified)
Data returned: active

Data request: Outcome logged for O=C(CSCc1ccc(Cl)cc1)N1CCN(Cc2ccc3c(c2)OCO3)CC1 in this assay:
Data returned: inactive

Data request: Please share the test call associated with CN1CCC(OC(=O)COc2ccc(Cl)cc2Cl)CC1 .
Data returned: inactive

Data request: Name the outcome recorded for O=C(C1CCCO1)N1CCN(C(=S)NC2CC2)CC1 (stereo unspecified) in the assay.
Data returned: inactive

Data request: Could you please tell me the result logged for Cc1cc(=O)oc(C)c1C(=O)NCCN(C)Cc1ccccc1 in this assay?
Data returned: inactive
